test: Components of the Cytosolic LPS Sensing Pathway: Gene Identification via Genome-wide siRNA Screen; conditions: RAW264.7 macrophages, IL-1a HTRF, actives lie on both sides, screened at 100 nM (by protocol), cells primed 5 h with Pam3CSK4 first
The whole screen tested about 53,000 sequences, of which about 3,700 (7%) were called active.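 Rule for the calls: active = gene knockdowns whose robust z-score for IL-1 alpha signal is at least 2 or at most -2, so actives lie on both sides; inactive = the rest.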 Shown is part of a subset that was picked to be rich in actives.
Classes used: t for active, f for inactive

# Sequence Code, Assigned Class
rows = [
    ("CGGCCUAACAGCCAGACUUTT against 1700013G24Rik", "f"),
    ("GCUAACACAACGAGAGAAGTT against Ushbp1", "t"),
    ("GCAAACAUGUCAAGUCCGATT against Actl6b", "f"),
    ("CCCUGACUUGUCCUUACAATT against Trem3", "f"),
    ("GGCCAAUUCCAGUGAGAUGTT against Lgsn", "f"),
    ("GCUGAACGAUGACUAUCCCTT against Cryba4", "t"),
    ("CCAAAAUAAGUGUGGUCAATT against Vstm2l", "f"),
    ("GGAAAUGACCUACGAAGAATT against Pfkfb4", "f"),
    ("GGACGAUUUAAGGAUUUUUTT against Dcun1d1", "t"),
    ("GGAGGCAUACAUGACAAAATT against Cop1", "f"),
    ("UGCCUGUAAACCAACAAGGTT against Prb1", "t"),
    ("CCCUGGACUAAGGAUCACCTT against Cops5", "f"),
    ("CGACAAGAAGACUUCGAAUTT against Mnt", "f"),
    ("CCUCCUUACAAGUUGAAGCTT against Tmem59l", "f"),
    ("GGACAUAUAUAGCAAGGAGTT against Polrmt", "f"),
    ("CCCACUUACUUUUGAUGUUTT against Uba1", "f"),
    ("GGUAAAGAUCCAGUGCCGCTT against Tbc1d10c", "f"),
    ("GCCUGAUCUACUGUGGUCCTT against Olfr1347", "f"),
    ("GGAAAUAUUUUCUCAGCAATT against Pcdhga1", "f"),
    ("CGAAAUCUUUUCUAACCACTT against Drd4", "t"),
    ("GGAGUUCGUACCCUUAUCCTT against Rtel1", "t"),
    ("GGAGUUCCUCAUGAAGAUGTT against Tmem241", "f"),
    ("CGUCACUGAUGUGGCUUUUTT against Plpp6", "f"),
    ("CGCCCUUGGAGGUUAAUCATT against Nsg2", "f"),
    ("CCAUAUCCCUGUGGAAAAGTT against Manf", "f"),
]

// data source = PubChem BioAssay AID1508600
